targetOfAssay: T1, human MSLN-R1-his protein (human, UniProt Q13421 296-390)
T1 construct: Made in HEK293E cells, purified on nickel column; also called hMSLN-R1-his; human MSLN-R1 protein; not shown: His tag
T1 chain: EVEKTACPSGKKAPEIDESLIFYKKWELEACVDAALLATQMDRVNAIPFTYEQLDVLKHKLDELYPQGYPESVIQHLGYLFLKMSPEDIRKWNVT
assayNotes: ELISA, coated antigen, antibody 20 nM
# OD450 annotations

- binder: "S009-F7.26.15 chimeric antibody (antibody, human IgG1, kappa, V domains shown, Human-murine chimeric antibody, human IgG1/kappa constant regions) VH: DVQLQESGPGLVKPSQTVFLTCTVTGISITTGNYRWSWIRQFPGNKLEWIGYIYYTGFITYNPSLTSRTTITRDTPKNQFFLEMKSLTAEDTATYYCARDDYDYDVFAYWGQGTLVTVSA VL: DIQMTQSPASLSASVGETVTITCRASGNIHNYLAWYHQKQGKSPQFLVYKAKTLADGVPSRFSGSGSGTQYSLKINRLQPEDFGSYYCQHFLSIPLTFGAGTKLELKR"
  OD450: 0.06
- binder: "S009-F7.65.13 chimeric antibody (antibody, human IgG1, kappa, V domains shown, Human-murine chimeric antibody, human IgG1/kappa constant regions) VH: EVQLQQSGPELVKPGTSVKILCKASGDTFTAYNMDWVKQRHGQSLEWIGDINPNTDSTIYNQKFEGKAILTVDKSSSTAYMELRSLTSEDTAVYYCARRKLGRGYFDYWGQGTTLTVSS VL: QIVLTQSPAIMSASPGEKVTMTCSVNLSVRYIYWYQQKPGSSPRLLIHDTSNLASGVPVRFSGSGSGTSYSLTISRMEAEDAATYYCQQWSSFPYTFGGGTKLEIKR"
  OD450: 0.05
- binder: "S009-F7.44.20 chimeric antibody (antibody, human IgG1, kappa, V domains shown, Human-murine chimeric antibody, human IgG1/kappa constant regions) VH: EVQLQQSGPELVKPGASVKIPCKASGYTFTDYNMDWVKQSHGKSLEWIGDINPSTGGTIYNQKFNGKATLTEDKSASTVYMEFRSLTSDDTAVYYCARRRIGTGYFDVWGTGTTVTVSS VL: QIVLTQSPALMSASPGEKVTLTCSASSSVISSYLSWYQQKPGSSPKLLIYRTSNLASGVPARFSGSGSGTSYSLTISSMEAEDAASYFCHQWSSFPYTFGGGTKLEIKR"
  OD450: 0.05
